Reference for the values: ChEMBL document CHEMBL4689842

# Tested on: U2OS
# method: Multiplex assay against U2OS
# Format: toxicity, cell-based
# measurement parameters: human, 24 h, 10 µM, compound concentration 10 uM, replicate 1
List of Population Fragmented Nuclei (%) values.
readout label: Population Fragmented Nuclei (%)

> print(dat)
                                   molecule  result.value
1  CCc1cccc(CC)c1NC(=O)c1nn(C)c2c1CCc1cnc(Nc3ccc(C(=O)NC4CCN(C)CC4)cc3OC(F)(F)F)nc1-2            20
2  COc1cc2ncnc(Nc3ccc(F)c(Cl)c3)c2cc1NC(=O)/C=C/CN1CCCCC1 [DACOMITINIB ANHYDROUS]             5
3  O=C(Cc1ccc(-c2ccc(OCCN3CCOCC3)cc2)cn1)NCc1ccccc1 [TIRBANIBULIN]            15
4  CN1CCC(=C2c3ccccc3CC(=O)c3sccc32)CC1.O=C(O)/C=C/C(=O)O [KETOTIFEN FUMARATE]            14
5  COC(=N)c1nc2ccc3ncnc(Nc4ccc(OC)cc4F)c3c2s1             1
6  Cc1cn(-c2cc(NC(=O)c3ccc(C)c(Nc4nccc(-c5cccnc5)n4)c3)cc(C(F)(F)F)c2)cn1 [NILOTINIB]            60
7  O=C(Nc1ccc(-n2nc(-c3cccnc3)cc2C(F)(F)F)cn1)c1ccc(-c2ccccc2)c(F)c1 [BI 2049]            10
8  CN(C)C(=O)C(CCN1CCC(O)(c2ccc(Cl)cc2)CC1)(c1ccccc1)c1ccccc1.Cl [LOPERAMIDE HYDROCHLORIDE]            23

---

# Tested on: Fibroblast
# method: Multiplex assay against human fibroblast
# Format: toxicity, cell-based
# measurement parameters: 12 h, 10 µM, compound concentration 10 uM, replicate 1
readout label: Population Healthy Nuclei (%)

> print(dat)
                                   molecule  unit.info  result.value
1  C=CCn1c(=O)c2cnc(Nc3ccc(N4CCN(C)CC4)cc3)nc2n1-c1cccc(C(C)(C)O)n1 [ADAVOSERTIB]          %            46
2  Cn1nc(C(F)(F)F)cc1-c1cnc(N2CCc3cc(S(=O)(=O)Nc4c(F)cc(Cl)cc4F)cc(N4CCCC4=O)c32)nc1 [TP-020]          %            57
3  S=C(NCCCc1c[nH]cn1)NCCCN(Cc1ccc(Cl)c(Cl)c1)c1ccc(Br)cn1          %             8
4  CCN1CCN(c2ccc(Nc3cc(N(C)C(=O)Nc4c(Cl)c(OC)cc(OC)c4Cl)ncn3)cc2)CC1 [INFIGRATINIB]          %            55
5  CCn1cc(-c2ccnc3[nH]c(-c4cccc(CN(C)C)c4)cc23)c(-c2ccc(NC(=O)N(C)C)cc2)n1 [GSK-1070916]          %            56
6  O=C(Nc1ccc(-c2ccnc(Nc3ccc(N4CCOCC4)cc3)n2)cc1)[C@@H]1CCCN1          %            30
7  O=C(Nc1ccc(Cl)cc1)Nc1cccc(-c2cccc(N3CCCC3)n2)c1          %            23
8  CCOc1cc(C(=O)N2CCC(N3CCN(C)CC3)CC2)ccc1Nc1ncc2c(n1)N(C1CCCC1)c1ccccc1C(=O)N2C          %            44
